# Test system: CSNK1A1
# Design: species or system human, MV4-11 + K-562 + COLO205 + SK-N-BE2 + OVCAR-8
# condition: read-out: apparent Kd; compound concentrations:100 nM and 1000 nM (sheet 'Samples'); n = 1
readoutName: potency estimated from few doses (nM)
Kindly provide the numeric value in nM only, without the unit symbol.

Worked examples, 2 compounds total:
> print(dat)
                                   compound  reportedvalue
1  Cl.c1ccc(-c2nc3n(c2-c2ccc4c(c2)OCO4)CCC3)nc1            369
2   Fc1ccc(-c2c(-c3ccncc3)[nH]c3nccnc23)cc1            667

Lookup: Return reported potency estimated from few doses. Input compound: c1ccc(-c2n[nH]cc2-c2ccnc3ccccc23)nc1 [GW271431X]
Found: 628

Lookup: For the compound CN1CCC(n2cnc(-c3ccc(F)cc3)c2-c2ccnc(N)n2)CC1 , give its reported potency estimated from few doses.
Found: 24.7

Lookup: Give a short answer stating reported potency estimated from few doses for Cl.Nc1nccc(-c2c(-c3ccc(F)cc3)ncn2C2CCNCC2)n1 .
Found: 19.8

Lookup: Provide measured potency estimated from few doses value, entry: CN(C)CC(O)COc1ccc(Nc2nccc(-c3cnn4nc(N5CCOCC5)ccc34)n2)cc1 (stereo not drawn) [GW767488X]
Found: 1250

Lookup: Look up and state reported potency estimated from few doses for Fc1ccc(-c2nc[nH]c2-c2ccncc2)cc1
Found: 98

Lookup: Item Cc1cnc(Nc2ccc(F)cc2Cl)nc1-c1c[nH]c(C(=O)N[C@H](CO)c2cccc(Cl)c2)c1 [Vertex11e] : provide potency estimated from few doses
Found: 969

Lookup: For the compound Nc1nc(-c2ccccn2)c(-c2ccnc3ccccc23)s1 [GW548057X] , give its reported potency estimated from few doses.
Found: 893
